methodSummary: qHTS RealTime-Glo MT Cell Viability Assay in HEK293 cells - 32 hour (AID 1224868); also: top concentration of the series differs between compounds; % is scaled to controls: 0 for no effect and ±100 for the full control effect; nearly all actives have a fitted effect of over 50% in size
conditionSummary: RealTime-Glo luminescence; series mostly up to 76.8 µM
Records with an inconclusive call do not appear. The source made the active and inactive calls. Calls follow the shape of the dose curve; as a rule, active = well fitted cell-killing curve with a large enough effect in the repeat runs; inconclusive = weak or mixed curves, or effect the other way; inactive = flat fitted curve, though single readings scatter.
Result category, one only: active, inactive

Examples from the recorded data:
CC(C)(C)NCC(O)COc1cccc2c1C[C@H](O)[C@H](O)C2 (some centres undefined) = inactive
C1CCCCC1 = inactive
C1=CCC2CC=CC2C1 (centres undefined) = inactive
O=C(O)c1cccc(Oc2ccccc2)c1 = inactive
CC[C@H]1OC(=O)[C@H](C)[C@@H](O[C@H]2C[C@@](C)(OC)[C@@H](O)[C@H](C)O2)[C@H](C)[C@@H](O[C@@H]2O[C@H](C)C[C@H](N(C)C)[C@H]2O)[C@](C)(O)C[C@@H](C)/C(=N\OCOCCOC)[C@H](C)[C@@H](O)[C@]1(C)O = inactive

Prompt: Look up the recorded call for O=C(Nc1ccc(C(=O)O)c(O)c1)c1ccccc1 in this test.
Response: inactive

Prompt: Look up the recorded call for CC(=O)OCC(=O)[C@@]1(OC(C)=O)[C@@H](C)C[C@H]2[C@@H]3C[C@H](F)C4=CC(=O)C=C[C@]4(C)[C@@]3(F)[C@@H](O)C[C@@]21C in this test.
Response: inactive

Prompt: Look up the recorded call for CCCCCCOC(=O)CCCCC in this test.
Response: inactive

Prompt: Look up the recorded call for O=c1[nH]c2cc(C(F)(F)F)c(N3CCOCC3)cc2n(CP(=O)(O)O)c1=O in this test.
Response: inactive

Prompt: Look up the recorded call for CCOC(=O)N1CCC(Nc2ccc(Cl)cc2N)CC1 in this test.
Response: inactive

Prompt: Look up the recorded call for CC1CCCC(=O)C1=O (centres undefined) in this test.
Response: inactive

* * *

methodSummary: qHTS assay to identify small molecule antagonists of the sonic hedgehog signaling (Shh) pathway - cell viability counter screen (AID 1259367); also: % is scaled to controls: 0 for no effect and ±100 for the full control effect; nearly all actives have a fitted effect of over 55% in size
conditionSummary: NIH/3T3 Gli1-Luc viability, CellTiter-Fluor, 24 h; series mostly up to 92.4 µM
Inconclusive results are not listed. Active and inactive are the calls of the source. The call rests on the fitted dose curve; in most records, active means well fitted cell-killing curve with a large enough effect in the repeat runs; inconclusive means weak or mixed curves, or effect the other way; inactive means no such curve, though single readings can be large or run the other way.
Listed here: items and their measured viability change, negative = cytotoxic.

As a guide, the following entries are already answered.
c1ccc2sc(SSc3nc4ccccc4s3)nc2c1 = 7.43% [at 19 µM] (inactive)
CCCCCCCCCCCCCOC(=O)CCSCCC(=O)OCCCCCCCCCCCCC = -3.37% [at 19 µM] (inactive)
CC1=CC[C@@H]2C[C@H]1C2(C)C = -2.9% [at 19 µM] (inactive)

Next item in the queue.
Field viability change, negative = cytotoxic (entry CCC(Cl)CC(Cl)C(Cl)C(Cl)C(Cl)C(C)Cl (centres undefined) ) reads 0.145% [at 19 µM] (inactive)

* * *

methodSummary: qHTS assay for identifying genotoxic compounds that show differential cytotoxicity against isogenic chicken DT40 cell lines with known DNA damage response pathways - Rad54/Ku70 mutant cell line (AID 743015); also: nearly all actives have a fitted effect of over 60% in size
conditionSummary: DT40 Rad54/Ku70 mutant viability, CellTiter-Glo, 40 h; series mostly up to 66.8 µM
Results filed as inconclusive are left out. Activity calls are given as the source filed them. Calls follow the shape of the dose curve; as a rule, active = well fitted cell-killing curve with a large enough effect in the repeat runs; inconclusive = weak or mixed curves; inactive = no such curve, though single readings can be large or run the other way.
Result category, one only: true (1) for active, false (0) for inactive

Examples from the recorded data:
CC(=O)OCCC1CCCCC1 = false (0)
C=Cc1ccc(OC(C)=O)cc1 = false (0)
COC(C)(C)OC = false (0)
COc1ccc2nc(S(=O)Cc3ncc(C)c(OC)c3C)[nH]c2c1 (configuration not stated) = true (1)
CCCCCCC(O)CCOC(C)=O (configuration not stated) = false (0)
CC(=O)OC(C)C[N+](C)(C)C (configuration not stated) = false (0)

Let's switch to this molecule now.
Prompt: Look up the recorded call for O=c1[nH]c2cc(C(F)(F)F)c(N3CCOCC3)cc2n(CP(=O)(O)O)c1=O in this test.
Response: false (0)
